System: YES;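 note: KINOMEscan kinase panel screen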
Construct: gene YES1
measurement.parameters: concentration: 1 μM, replicates: in singlicate; n = 1
Reported %Inh values are given for each entry in this list.
Write the quantity with the unit trailing the number.

Some solved cases for reference:
[[record]]
structure_string = "O=c1cc(N2CCOCC2)nc2n(Cc3cccc(Cl)c3Cl)ccn12"
test_system = "YES"
value_type = "%Inh"
observed_result = "14%"

[[record]]
structure_string = "Fc1cccc(COc2nnc(-c3ccc4c(c3)CCO4)o2)c1"
test_system = "YES"
value_type = "%Inh"
observed_result = "0%"

[[record]]
structure_string = "CC(=O)Nc1nc2cnc(Nc3cc(NC(=O)c4cccc(CCC#N)c4)ccc3C)nc2s1"
test_system = "YES"
value_type = "%Inh"
observed_result = "3%"

[[record]]
structure_string = "Cc1cccc(-c2nc(Nc3cccc(C(N)=O)c3)c3ccccc3n2)n1"
test_system = "YES"
value_type = "%Inh"
observed_result = "19%"

[[record]]
structure_string = "Cc1cccc(-c2nc(-c3ccc(S(C)(=O)=O)cc3)sc2-c2ccnc(NCCc3ccccc3)c2)c1"
test_system = "YES"
value_type = "%Inh"
observed_result = "0%"


Next:
Using known records, supply %Inh for `Cc1cccc(-c2cc(Nc3ccncc3)c3ccccc3n2)n1`
0%

Every entry's value here was drawn from paper PMC5540273.
